Values compiled from the supplement of paper PMC11150407.

Each entry below carries its recorded cell viability.
tested on: MOLM1 and UCSD/AML1 (averaged); test: cell viability relative to DMSO control (POC); higher = less growth inhibition; conditions: 1 µM; 72 h
About 180 (8.6%) of roughly 2,100 compounds showed an effect of 50% or more. What follows is part of a selection rich in strong results, with near analogues and random picks from the rest.
Please state the figure in %; there is no need to write the unit.

# example entries with known answers
>  <MOLECULE>
O=C(OCC(O)CO)c1ccccc1Nc1ccnc2cc(Cl)ccc12 (stereo not given)

>  <cell viability / %>
104

$$$$
>  <MOLECULE>
C=C[C@@]1(C)CC(=O)[C@@]2(O)[C@](C)(O1)[C@@H](O)[C@@H](O)C1C(C)(C)CC[C@H](O)[C@@]12C (stereo not given in full)

>  <cell viability / %>
98.8

$$$$
>  <MOLECULE>
O=C(Cn1ccnc1[N+](=O)[O-])NCCO

>  <cell viability / %>
94.5

$$$$

Task: For CC1(C)C[C@@H]2C(=O)CC[C@H]3O[C@]3(C)CC[C@H]21 , what is its reported cell viability?
Result: 104

Task: For O=C1c2ccccc2C(=O)c2c(O)c(O)cc(O)c21 , what is its reported cell viability?
Result: 83.8
